I'd appreciate it if you could supply self-cleavage values for the items below.
B1: CPEB3 Ribozyme (parent)
chain: GGGGGCCACAGCAGAAGCGUUCACGUCGCGGCCCCUGUCAGAUUCUGGUGAAUCUGCGAAUUCUGCUGU

# Variants of: B1
# EXPERIMENT: self-cleavage, relative activity (ratio to wild type); higher = more cleavage; co-transcriptional
The answer should be written as a number, with no unit following it.

Inquiry: Specify reported self-cleavage for the variant shown: G4U G28U
Reply text: 0.0847

Inquiry: Specify reported self-cleavage for the variant shown: C33G C66G
Reply text: 0.625

Inquiry: Specify reported self-cleavage for the variant shown: U36G U53G
Reply text: 0.214

Inquiry: Specify reported self-cleavage for the variant shown: C22G A60G
Reply text: 0.265

Inquiry: Specify reported self-cleavage for the variant shown: C9A A10G
Reply text: 1.01

Inquiry: Specify reported self-cleavage for the variant shown: A40C A52C
Reply text: 0.347

Inquiry: Specify reported self-cleavage for the variant shown: G37C U44A
Reply text: 0.27

Inquiry: Specify reported self-cleavage for the variant shown: A52C G68A
Reply text: 0.987

Inquiry: Specify reported self-cleavage for the variant shown: C12G C24G
Reply text: 0.199

Inquiry: Specify reported self-cleavage for the variant shown: G19U U36C
Reply text: 0.212

Inquiry: Specify reported self-cleavage for the variant shown: A8G U21A
Reply text: 0.833

Inquiry: Specify reported self-cleavage for the variant shown: U26A G30C
Reply text: 0.266

Inquiry: Specify reported self-cleavage for the variant shown: A16C A52G
Reply text: 0.389

Inquiry: Specify reported self-cleavage for the variant shown: G2C C18G
Reply text: 0.0398

Inquiry: Specify reported self-cleavage for the variant shown: G30U C35U
Reply text: 0.292

Inquiry: Specify reported self-cleavage for the variant shown: G14U A42G
Reply text: 0.404

Inquiry: Specify reported self-cleavage for the variant shown: U36G C57A
Reply text: 0.236

Inquiry: Specify reported self-cleavage for the variant shown: C32U U62A
Reply text: 0.979

Inquiry: Specify reported self-cleavage for the variant shown: U20A U69A
Reply text: 0.181

Inquiry: Specify reported self-cleavage for the variant shown: G4A A13G
Reply text: 0.88

Inquiry: Specify reported self-cleavage for the variant shown: C29U U36G
Reply text: 0.147

Inquiry: Specify reported self-cleavage for the variant shown: C18U G41U
Reply text: 0.44

Inquiry: Specify reported self-cleavage for the variant shown: C34U G41U
Reply text: 0.901

Inquiry: Specify reported self-cleavage for the variant shown: G28U U43A
Reply text: 0.135

Inquiry: Specify reported self-cleavage for the variant shown: U43C G47U
Reply text: 0.98

Inquiry: Specify reported self-cleavage for the variant shown: C27G G58A
Reply text: 0.16

Inquiry: Specify reported self-cleavage for the variant shown: G28A C34G
Reply text: 0.139

Inquiry: Specify reported self-cleavage for the variant shown: U61C U62G
Reply text: 0.487

Inquiry: Specify reported self-cleavage for the variant shown: C24U G28U
Reply text: 0.214

Inquiry: Specify reported self-cleavage for the variant shown: G3C A13G
Reply text: 0.18

Inquiry: Specify reported self-cleavage for the variant shown: C35G U38C
Reply text: 0.286

Inquiry: Specify reported self-cleavage for the variant shown: G1U A16U
Reply text: 0.103

Inquiry: Specify reported self-cleavage for the variant shown: C12A U36G
Reply text: 0.154

Inquiry: Specify reported self-cleavage for the variant shown: A23U C35A
Reply text: 0.395

Inquiry: Specify reported self-cleavage for the variant shown: G31C G58U
Reply text: 0.209

Inquiry: Specify reported self-cleavage for the variant shown: G14A U46A
Reply text: 0.85

Inquiry: Specify reported self-cleavage for the variant shown: A8C U69C
Reply text: 1.07

Inquiry: Specify reported self-cleavage for the variant shown: G31U G58U
Reply text: 0.86
